The origin of these recorded values is patent US20250282734A1.

# test.protocol: Hygroscopy, dynamic vapour sorption (DVS) isotherms (Example 15)
# Format: physicochemical
# measurement.setup: 50% Relative humidity

{"molecule": "O=C([O-])c1cc(NC(=O)C2(c3ccc(C(F)(F)F)cc3F)CC2)ccc1-c1cnn(C2CCC2)c1.[K+] [Potassium salt]", "Change in mass [%], Desorption / %": 9.24}
{"molecule": "N=C(N)NCCC[C@H](N)C(=O)O.O=C(O)c1cc(NC(=O)C2(c3ccc(C(F)(F)F)cc3F)CC2)ccc1-c1cnn(C2CCC2)c1 [Arginine Salt]", "Change in mass [%], Desorption / %": 9.59}
{"molecule": "O=C([O-])c1cc(NC(=O)C2(c3ccc(C(F)(F)F)cc3F)CC2)ccc1-c1cnn(C2CCC2)c1.[Na+] [Sodium salt]", "Change in mass [%], Desorption / %": 5.07}
{"molecule": "O=C(O)c1cc(NC(=O)C2(c3ccc(C(F)(F)F)cc3F)CC2)ccc1-c1cnn(C2CCC2)c1 [free acid]", "Change in mass [%], Desorption / %": 0.16}

* * *

Parameter: Change in mass [%], Sorption. Scope: all listed entries.
# test.protocol: Hygroscopy, dynamic vapour sorption (DVS) isotherms (Example 15)
# Format: physicochemical
# measurement.setup: 0% Relative humidity

{"molecule": "O=C(O)c1cc(NC(=O)C2(c3ccc(C(F)(F)F)cc3F)CC2)ccc1-c1cnn(C2CCC2)c1 [free acid]", "Change in mass [%], Sorption, %": 0.06}
{"molecule": "O=C([O-])c1cc(NC(=O)C2(c3ccc(C(F)(F)F)cc3F)CC2)ccc1-c1cnn(C2CCC2)c1.[K+] [Potassium salt]", "Change in mass [%], Sorption, %": 1.84}
{"molecule": "O=C([O-])c1cc(NC(=O)C2(c3ccc(C(F)(F)F)cc3F)CC2)ccc1-c1cnn(C2CCC2)c1.[Na+] [Sodium salt]", "Change in mass [%], Sorption, %": 0.00}
{"molecule": "N=C(N)NCCC[C@H](N)C(=O)O.O=C(O)c1cc(NC(=O)C2(c3ccc(C(F)(F)F)cc3F)CC2)ccc1-c1cnn(C2CCC2)c1 [Arginine Salt]", "Change in mass [%], Sorption, %": 0.00}

* * *

# test.protocol: Hygroscopy, dynamic vapour sorption (DVS) isotherms (Example 15)
# Assay type: physicochemical
# measurement.setup: 90% Relative humidity
Catalogue of Change in mass [%], Sorption readings, one per entry.

{"molecule": "O=C([O-])c1cc(NC(=O)C2(c3ccc(C(F)(F)F)cc3F)CC2)ccc1-c1cnn(C2CCC2)c1.[K+] [Potassium salt]", "Change in mass [%], Sorption (%)": 37.54}
{"molecule": "O=C([O-])c1cc(NC(=O)C2(c3ccc(C(F)(F)F)cc3F)CC2)ccc1-c1cnn(C2CCC2)c1.[Na+] [Sodium salt]", "Change in mass [%], Sorption (%)": 30.67}
{"molecule": "O=C(O)c1cc(NC(=O)C2(c3ccc(C(F)(F)F)cc3F)CC2)ccc1-c1cnn(C2CCC2)c1 [free acid]", "Change in mass [%], Sorption (%)": 0.44}
{"molecule": "N=C(N)NCCC[C@H](N)C(=O)O.O=C(O)c1cc(NC(=O)C2(c3ccc(C(F)(F)F)cc3F)CC2)ccc1-c1cnn(C2CCC2)c1 [Arginine Salt]", "Change in mass [%], Sorption (%)": 20.10}

* * *

# test.protocol: Hygroscopy, dynamic vapour sorption (DVS) isotherms (Example 15)
# Format: physicochemical
# measurement.setup: 90% Relative humidity
List of Change in mass [%], Desorption values.

{"compound": "O=C([O-])c1cc(NC(=O)C2(c3ccc(C(F)(F)F)cc3F)CC2)ccc1-c1cnn(C2CCC2)c1.[K+] [Potassium salt]", "output.unit": "%", "Change in mass [%], Desorption": 1.40}
{"compound": "N=C(N)NCCC[C@H](N)C(=O)O.O=C(O)c1cc(NC(=O)C2(c3ccc(C(F)(F)F)cc3F)CC2)ccc1-c1cnn(C2CCC2)c1 [Arginine Salt]", "output.unit": "%", "Change in mass [%], Desorption": 2.87}
{"compound": "O=C([O-])c1cc(NC(=O)C2(c3ccc(C(F)(F)F)cc3F)CC2)ccc1-c1cnn(C2CCC2)c1.[Na+] [Sodium salt]", "output.unit": "%", "Change in mass [%], Desorption": 26.84}
{"compound": "O=C(O)c1cc(NC(=O)C2(c3ccc(C(F)(F)F)cc3F)CC2)ccc1-c1cnn(C2CCC2)c1 [free acid]", "output.unit": "%", "Change in mass [%], Desorption": 0.01}
